Tested on: HOP-92 NSCLC
Assay: NCI tumour cell line growth inhibition, 48 h; in the data active = GI50 below about 0.43 µM; inactive = the rest
Classes used: active, inactive

smiles_text=Oc1cccc2ccc(N/N=C/c3cc(CN4CCCCC4)c(O)c4ncccc34)nc12 classification=active
smiles_text=COC(=O)[C@H](C[C@H](Cc1ccccc1)NC(=O)c1csc([C@@H](C[C@H](C(C)C)N(C)C(=O)[C@@H](NC(=O)[C@H]2CCCCN2C)C(C)C)OC(C)=O)n1)NC(=O)OCc1ccccc1 classification=active
smiles_text=CC(C)c1cc(-c2n[nH]c(=O)n2-c2ccc3c(ccn3C)c2)c(O)cc1O classification=active
smiles_text=O=c1cc(-c2ccccc2)[nH]c2ccccc12 classification=inactive
